Here the recorded Inhibition is given for each entry.
test system: Staphylococcus aureus; test: Antibacterial activity against Staphylococcus aureus MRSA ATCC 43300 (CO-ADD:GP_020); MIC in CAMBH media using NBS plates, by Resazurin F(560/590); type: functional; conditions: Concentration 20 uM, ASSAY_TEST Inhibition of Bacterial Growth, detection method Resazurin, Fluorescence (ex560/em590), MEDIA CAMHB, plate type 384well, CORNING #3640, time 18 hr
Write the value in % as a bare number.

Enquiry: Lab note: need Inhibition for "Oc1ccccc1-n1c(-c2ccccc2)ccc1-c1ccccc1" on Staphylococcus aureus, anyone have it?
Return: 3.47

Enquiry: For CSC1=NC=C(C#N)C2=NC(c3ccc(Cl)cc3)NN12 (stereo unspecified) then?
Return: -1.38

Enquiry: Input COC(=O)C1CC(O)C(O)C(O)C1 (stereo unspecified)
Return: 17.7

Enquiry: Follow-up item: "O=c1nc(Oc2ccccc2)nc2ncccn12"
Return: 18.68

Enquiry: One more compound: N=C(NOC(=O)c1ccccc1)C(Cc1ccccc1)C(=O)NOC(=O)c1ccccc1 (stereo unspecified)
Return: 11.08

Enquiry: Another compound to look at: O=c1c(-c2ccc(O)cc2)coc2cc(O)cc(O)c12 [GENISTEIN]
Return: 3.06
